The origin of these recorded values is patent US20240327535A1.

target-or-system: T1, extracellular domain of rhesus monkey BCMA (rhesus monkey, UniProt F7FFA0 1-53)
T1 construct: extracellular domain; also called RhBCMA
T1 sequence (F7FFA0 entry or part of it): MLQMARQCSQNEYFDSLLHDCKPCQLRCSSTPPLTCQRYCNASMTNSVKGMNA
measurement-protocol: Octet BLI; Fab 200 nM
List of pKd values.
# pKd = -log10(concentration in molar units)

Prompt: Suppose we examine the binder AB200-R1H32-R2Vk8 (Fab, V domains shown) VH: QVQLVQSGAEVKKPGSSVKVSCKASGGTFSNYWMHWVRQAPGQGLEWMGATYRSHSDTYYNQKFKSRVTITADKSTSTAYMELSSLRSEDTAVYYCARGAIYHGYDVIDNWGQGTLVTVSS VL: DIQMTQSPSSLSASVGDRVTITCRASQSISSYINWYQQKPGKAPKLLIYATSNLQIGVPSRFSGSGSGTDFTLTISSLQPEDFATYYCQQFRKLPWSFGQGTKLEIKR ; what pKd value has been reported?
Response: 8.45

Prompt: For the binder AB200-R1H32-R2Vk24 (Fab, V domains shown) VH: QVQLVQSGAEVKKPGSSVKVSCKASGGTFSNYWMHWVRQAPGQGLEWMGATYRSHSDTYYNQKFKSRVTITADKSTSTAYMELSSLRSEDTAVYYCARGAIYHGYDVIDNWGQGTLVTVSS VL: DIQMTQSPSSLSASVGDRVTITCRASQSISSYLNWYQQKPGKAPKLLIYATSNIQSGVPSRFSGSGSGTDFTLTISSLQPEDFATYYCQQYRRLPWSFGQGTKLEIKR , what pKd is on record?
Response: 8.31

Prompt: Suppose we examine the binder AB200-R1H32-R2Vk11 (Fab, V domains shown) VH: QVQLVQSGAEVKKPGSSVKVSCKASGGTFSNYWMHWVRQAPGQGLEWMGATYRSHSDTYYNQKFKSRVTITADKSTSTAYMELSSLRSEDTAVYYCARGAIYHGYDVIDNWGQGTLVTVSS VL: DIQMTQSPSSLSASVGDRVTITCRASQSISSYLNWYQQKPGKAPKLLIYAASSLQSGVPSRFSGSGSGTDFTLTISSLQPEDFATYYCQQFRRLPWTFGQGTKLEIKR ; what pKd value has been reported?
Response: 8.39

Prompt: So what's the measured pKd for this one? AB200-R1H32-R2Vk44 (Fab, V domains shown) VH: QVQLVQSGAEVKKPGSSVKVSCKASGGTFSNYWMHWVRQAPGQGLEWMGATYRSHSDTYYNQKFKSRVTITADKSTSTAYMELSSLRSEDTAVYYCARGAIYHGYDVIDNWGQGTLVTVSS VL: DIQMTQSPSSLSASVGDRVTITCRASQSISSYINWYQQKPGKAPKLLIYATSNLQIGVPSRFSGSGSGTDFTLTISSLQPEDFATYYCQQYRRLPWSFGQGTKLEIKR
Response: 8.48

Prompt: I am curious: what pKd value has been reported for AB200-R1H32-R2Vk17 (Fab, V domains shown) VH: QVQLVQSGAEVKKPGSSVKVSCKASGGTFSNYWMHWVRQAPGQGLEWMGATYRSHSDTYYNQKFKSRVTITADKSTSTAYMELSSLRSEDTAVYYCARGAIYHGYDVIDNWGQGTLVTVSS VL: DIQMTQSPSSLSASVGDRVTITCRASQSISSYINWYQQKPGKAPKLLIYAASSLQSGVPSRFSGSGSGTDFTLTISSLQPEDFATYYCQQYRKIPWSFGQGTKLEIKR ?
Response: 8.13

Prompt: For the binder shown here, AB200-R1H32-R2Vk43 (Fab, V domains shown) VH: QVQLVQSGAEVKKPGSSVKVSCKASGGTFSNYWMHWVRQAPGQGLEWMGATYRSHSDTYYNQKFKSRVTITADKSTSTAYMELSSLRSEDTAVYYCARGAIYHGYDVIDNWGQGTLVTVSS VL: DIQMTQSPSSLSASVGDRVTITCRASQSISSYINWYQQKPGKAPKLLIYATSNIQSGVPSRFSGSGSGTDFTLTISSLQPEDFATYYCQQFRKIPWTFGQGTKLEIKR , give the reported pKd.
Response: 8.04

Prompt: Look at this binder and give its reported pKd. AB200-R1H32-R2Vk32 (Fab, V domains shown) VH: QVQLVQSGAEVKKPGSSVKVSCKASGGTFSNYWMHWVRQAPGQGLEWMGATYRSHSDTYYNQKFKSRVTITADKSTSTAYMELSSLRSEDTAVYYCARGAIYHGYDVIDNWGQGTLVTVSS VL: DIQMTQSPSSLSASVGDRVTITCRASQSISSYLNWYQQKPGKAPKLLIYATSNLQIGVPSRFSGSGSGTDFTLTISSLQPEDFATYYCQQYRKIPWSFGQGTKLEIKR
Response: 8.32

Prompt: Tell me the measured pKd of AB200-R1H32-R2Vk2 (Fab, V domains shown) VH: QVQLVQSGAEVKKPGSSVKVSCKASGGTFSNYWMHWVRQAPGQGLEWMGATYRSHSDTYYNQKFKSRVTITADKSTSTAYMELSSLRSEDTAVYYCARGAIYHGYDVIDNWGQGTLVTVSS VL: DIQMTQSPSSLSASVGDRVTITCRASQSISSYINWYQQKPGKAPKLLIYAASSLQSGVPSRFSGSGSGTDFTLTISSLQPEDFATYYCQQFRKLPWSFGQGTKLEIKR , please.
Response: 8.26

Prompt: Endpoint output: pKd of AB200-R1H32-R2Vk34 (Fab, V domains shown) VH: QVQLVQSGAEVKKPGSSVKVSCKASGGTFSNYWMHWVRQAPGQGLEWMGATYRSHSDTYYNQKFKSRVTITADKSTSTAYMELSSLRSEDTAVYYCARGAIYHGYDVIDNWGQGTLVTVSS VL: DIQMTQSPSSLSASVGDRVTITCRASQSISSYINWYQQKPGKAPKLLIYATSNLQSGVPSRFSGSGSGTDFTLTISSLQPEDFATYYCQQYRRLPWSFGQGTKLEIKR . Value?
Response: 8.34

Prompt: Bench note: what pKd did AB200-R1H32-R2Vk36 (Fab, V domains shown) VH: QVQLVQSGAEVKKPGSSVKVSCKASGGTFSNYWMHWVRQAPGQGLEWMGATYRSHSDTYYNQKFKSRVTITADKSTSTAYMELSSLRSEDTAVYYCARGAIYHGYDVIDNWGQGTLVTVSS VL: DIQMTQSPSSLSASVGDRVTITCRASQSISSYINWYQQKPGKAPKLLIYATSNLQSGVPSRFSGSGSGTDFTLTISSLQPEDFATYYCQQFRRLPWTFGQGTKLEIKR show?
Response: 8.46
